targetOrTestSystem: CathepsinG, from human neutrophils (Homo sapiens)
Sequence (P08311 21-244): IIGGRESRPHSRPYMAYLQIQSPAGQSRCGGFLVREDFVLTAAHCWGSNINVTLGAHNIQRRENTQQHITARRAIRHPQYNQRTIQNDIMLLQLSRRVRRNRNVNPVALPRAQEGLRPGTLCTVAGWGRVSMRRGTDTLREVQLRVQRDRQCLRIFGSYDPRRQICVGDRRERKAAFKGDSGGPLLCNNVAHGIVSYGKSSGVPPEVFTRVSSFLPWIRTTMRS
experimentSummary: Enzymatic assay, cathepsin G
particulars: Cathepsin G IC50
Where a SMILES comes first, the peptide text is derived from it.
The entries below are paired with their reported IC50.

molecule	operator	IC50 (nM)
CC[C@H](C)[C@@H]1NC(=O)[C@@H]2CCCN2C(=O)[C@H]2CCCN2C(=O)[C@H](CCCNC(=N)N)NC(=O)[C@@H]2CSSC[C@H](NC1=O)C(=O)N[C@@H]([C@@H](C)O)C(=O)N[C@@H](CCCCN)C(=O)N[C@@H](CO)C(=O)N[C@@H](CC1CCCCC1)C(=O)N1CCC[C@H]1C(=O)N1CCC[C@H]1C(=O)N[C@@H]([C@@H](C)CC)C(=O)N2 [Ex. 182] (HELM PEPTIDE1{I.C.T.K.S.[Cha].P.P.I.C.R.[dP].P}$PEPTIDE1,PEPTIDE1,2:R3-10:R3|PEPTIDE1,PEPTIDE1,1:R1-13:R2$$$V2.0)	=	111
CCCC[C@@H]1NC(=O)[C@@H]2CCCN2C(=O)[C@H]2CCCN2C(=O)[C@H](c2ccccc2)NC(=O)[C@@H]2CSSC[C@H](NC1=O)C(=O)N[C@@H]([C@@H](C)O)C(=O)N[C@@H](C)C(=O)N[C@@H](CO)C(=O)N[C@@H]([C@@H](C)CC)C(=O)N1CCC[C@H]1C(=O)N1CCC[C@H]1C(=O)N[C@@H](CCC(N)=O)C(=O)N2 [Ex. 98] (HELM PEPTIDE1{[Nle].C.T.A.S.I.P.P.Q.C.[Phg].[dP].P}$PEPTIDE1,PEPTIDE1,2:R3-10:R3|PEPTIDE1,PEPTIDE1,1:R1-13:R2$$$V2.0)	>	100000

---

targetOrTestSystem: Elastase from human neutrophils (Homo sapiens, UniProt P08246)
experimentSummary: Enzymatic assay, elastase
particulars: Elastase IC50
Where a SMILES comes first, the peptide text is derived from it.

| compound | IC50 [nM] |
| --- | --- |
| CCCCCCCC[C@@H]1NC(=O)[C@@H]2CCCN2C(=O)[C@H]2CCCN2C(=O)[C@H](Cc2ccc(O)cc2)NC(=O)[C@H](CCCCN)NC(=O)[C@H](CCC(N)=O)NC(=O)[C@@H]2CCCN2C(=O)[C@@H]2CCCN2C(=O)[C@H]([C@@H](C)CC)NC(=O)[C@H](CO)NC(=O)[C@H](C)NC(=O)[C@H]([C@@H](C)O)NC(=O)[C@H](CCC(=O)O)NC1=O [Ex. 156] (HELM PEPTIDE1{[CCCCCCCC[C@H](N[*:1])C(=O)[*:2]].E.T.A.S.I.P.P.Q.K.Y.[dP].P}$PEPTIDE1,PEPTIDE1,1:R1-13:R2$$$V2.0) | 7.5 |

---

The entries below are paired with their reported IC50.
targetOrTestSystem: Elastase from human neutrophils (Homo sapiens, UniProt P08246)
Sequence (P08246 30-267): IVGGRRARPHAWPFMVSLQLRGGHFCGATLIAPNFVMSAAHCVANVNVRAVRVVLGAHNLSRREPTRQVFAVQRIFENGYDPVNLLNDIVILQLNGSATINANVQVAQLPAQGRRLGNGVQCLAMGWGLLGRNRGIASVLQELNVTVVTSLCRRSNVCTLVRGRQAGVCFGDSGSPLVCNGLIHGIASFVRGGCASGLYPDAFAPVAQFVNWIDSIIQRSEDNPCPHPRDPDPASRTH
experimentSummary: Enzymatic assay, elastase
particulars: Elastase IC50
Where a SMILES comes first, the peptide text is derived from it.

compound	IC50, nM
CCCC[C@@H]1NC(=O)[C@@H]2CCCN2C(=O)[C@H]2CCCN2C(=O)[C@H](Cc2ccccc2Cl)NC(=O)[C@@H]2CSSC[C@H](NC1=O)C(=O)N[C@@H]([C@@H](C)O)C(=O)N[C@@H](C)C(=O)N[C@@H](CO)C(=O)N[C@@H]([C@@H](C)CC)C(=O)N1CCC[C@H]1C(=O)N1CCC[C@H]1C(=O)N[C@@H](CCC(N)=O)C(=O)N2 [Ex. 96] (HELM PEPTIDE1{[Nle].C.T.A.S.I.P.P.Q.C.[O=C([C@H](Cc1ccccc1Cl)N[*:1])[*:2]].[dP].P}$PEPTIDE1,PEPTIDE1,2:R3-10:R3|PEPTIDE1,PEPTIDE1,1:R1-13:R2$$$V2.0)	15
CCCC[C@@H]1NC(=O)[C@@H]2CCCN2C(=O)[C@H]2CCCN2C(=O)[C@H](Cc2ccc(O)cc2)NC(=O)[C@H](CCSC)NC(=O)[C@H](CCC(N)=O)NC(=O)[C@@H]2CCCN2C(=O)[C@@H]2CCCN2C(=O)[C@H]([C@@H](C)CC)NC(=O)[C@H](CO)NC(=O)[C@H](C)NC(=O)[C@H]([C@@H](C)O)NC(=O)[C@H]([C@@H](C)O)NC1=O [Ex. 108] (HELM PEPTIDE1{[Nle].T.T.A.S.I.P.P.Q.M.Y.[dP].P}$PEPTIDE1,PEPTIDE1,1:R1-13:R2$$$V2.0)	31
CCCCCCCC[C@@H]1NC(=O)[C@H](CO)NC(=O)[C@H](C)NC(=O)[C@H]([C@@H](C)O)NC(=O)[C@H]([C@@H](C)O)NC(=O)[C@H](CCCC)NC(=O)[C@@H]2CCCN2C(=O)[C@H]2CCCN2C(=O)[C@H](Cc2ccc(O)cc2)NC(=O)[C@H](CCC(N)=O)NC(=O)[C@H](CCC(N)=O)NC(=O)[C@@H]2CCCN2C(=O)[C@@H]2CCCN2C1=O [Ex. 135] (HELM PEPTIDE1{[Nle].T.T.A.S.[CCCCCCCC[C@H](N[*:1])C(=O)[*:2]].P.P.Q.Q.Y.[dP].P}$PEPTIDE1,PEPTIDE1,1:R1-13:R2$$$V2.0)	23
CCCC[C@@H]1NC(=O)[C@@H]2CCCN2C(=O)[C@@H](CO)NC(=O)[C@H](Cc2ccc(O)cc2)NC(=O)[C@@H]2CSSC[C@H](NC1=O)C(=O)N[C@@H]([C@@H](C)O)C(=O)N[C@@H](C)C(=O)N[C@@H](CO)C(=O)N[C@@H]([C@@H](C)CC)C(=O)N1CCC[C@H]1C(=O)N1CCC[C@H]1C(=O)N[C@@H](CCC(N)=O)C(=O)N2 [Ex. 118] (HELM PEPTIDE1{A.S.I.P.P.Q.C.Y.[dS].P.[Nle].C.T}$PEPTIDE1,PEPTIDE1,7:R3-12:R3|PEPTIDE1,PEPTIDE1,1:R1-13:R2$$$V2.0)	43
CCCCCCCC[C@@H]1NC(=O)[C@@H]2CCCN2C(=O)[C@H]2CCCN2C(=O)[C@H](Cc2ccc(O)cc2)NC(=O)[C@H](CCC(N)=O)NC(=O)[C@H](CCC(N)=O)NC(=O)[C@@H]2CCCN2C(=O)[C@@H]2CCCN2C(=O)[C@H]([C@@H](C)CC)NC(=O)[C@H](CO)NC(=O)[C@H](C)NC(=O)[C@H]([C@@H](C)O)NC(=O)[C@H]([C@@H](C)O)NC1=O [Ex. 147] (HELM PEPTIDE1{[CCCCCCCC[C@H](N[*:1])C(=O)[*:2]].T.T.A.S.I.P.P.Q.Q.Y.[dP].P}$PEPTIDE1,PEPTIDE1,1:R1-13:R2$$$V2.0)	11
CCCC[C@@H]1NC(=O)[C@@H]2CCCN2C(=O)[C@H]2CCCN2C(=O)[C@H](Cc2ccc(O)cc2)NC(=O)[C@H](CCC(N)=O)NC(=O)[C@H](CCC(N)=O)NC(=O)[C@@H]2CCCN2C(=O)[C@@H]2CCCN2C(=O)[C@H]([C@@H](C)CC)NC(=O)[C@H](CO)NC(=O)[C@H](C)NC(=O)[C@H]([C@@H](C)O)NC(=O)[C@H]([C@@H](C)O)NC1=O [Ex. 110] (HELM PEPTIDE1{[Nle].T.T.A.S.I.P.P.Q.Q.Y.[dP].P}$PEPTIDE1,PEPTIDE1,1:R1-13:R2$$$V2.0)	38
CCCC[C@@H]1NC(=O)[C@@H]2CCCN2C(=O)[C@@H](C)NC(=O)[C@H](Cc2ccc(O)cc2)NC(=O)[C@@H]2CSSC[C@H](NC1=O)C(=O)N[C@@H]([C@@H](C)O)C(=O)N[C@@H](C)C(=O)N[C@@H](CO)C(=O)N[C@@H]([C@@H](C)CC)C(=O)N1CCC[C@H]1C(=O)N1CCC[C@H]1C(=O)N[C@@H](CCC(N)=O)C(=O)N2 [Ex. 130] (HELM PEPTIDE1{[Nle].C.T.A.S.I.P.P.Q.C.Y.[dA].P}$PEPTIDE1,PEPTIDE1,2:R3-10:R3|PEPTIDE1,PEPTIDE1,1:R1-13:R2$$$V2.0)	29
CCCCCCCC[C@@H]1NC(=O)[C@H](CO)NC(=O)[C@H](C)NC(=O)[C@H]([C@@H](C)O)NC(=O)[C@@H]2CSSC[C@H](NC(=O)[C@H](CCC(N)=O)NC(=O)[C@@H]3CCCN3C(=O)[C@@H]3CCCN3C1=O)C(=O)N[C@@H](Cc1ccc(O)cc1)C(=O)N1CCC[C@@H]1C(=O)N1CCC[C@H]1C(=O)N[C@@H](CCCC)C(=O)N2 [Ex. 81] (HELM PEPTIDE1{[Nle].C.T.A.S.[CCCCCCCC[C@H](N[*:1])C(=O)[*:2]].P.P.Q.C.Y.[dP].P}$PEPTIDE1,PEPTIDE1,2:R3-10:R3|PEPTIDE1,PEPTIDE1,1:R1-13:R2$$$V2.0)	28
